# assayed.system: Acetyl-CoA carboxylase 2 (Homo sapiens)
# Sequence (O00763 whole entry): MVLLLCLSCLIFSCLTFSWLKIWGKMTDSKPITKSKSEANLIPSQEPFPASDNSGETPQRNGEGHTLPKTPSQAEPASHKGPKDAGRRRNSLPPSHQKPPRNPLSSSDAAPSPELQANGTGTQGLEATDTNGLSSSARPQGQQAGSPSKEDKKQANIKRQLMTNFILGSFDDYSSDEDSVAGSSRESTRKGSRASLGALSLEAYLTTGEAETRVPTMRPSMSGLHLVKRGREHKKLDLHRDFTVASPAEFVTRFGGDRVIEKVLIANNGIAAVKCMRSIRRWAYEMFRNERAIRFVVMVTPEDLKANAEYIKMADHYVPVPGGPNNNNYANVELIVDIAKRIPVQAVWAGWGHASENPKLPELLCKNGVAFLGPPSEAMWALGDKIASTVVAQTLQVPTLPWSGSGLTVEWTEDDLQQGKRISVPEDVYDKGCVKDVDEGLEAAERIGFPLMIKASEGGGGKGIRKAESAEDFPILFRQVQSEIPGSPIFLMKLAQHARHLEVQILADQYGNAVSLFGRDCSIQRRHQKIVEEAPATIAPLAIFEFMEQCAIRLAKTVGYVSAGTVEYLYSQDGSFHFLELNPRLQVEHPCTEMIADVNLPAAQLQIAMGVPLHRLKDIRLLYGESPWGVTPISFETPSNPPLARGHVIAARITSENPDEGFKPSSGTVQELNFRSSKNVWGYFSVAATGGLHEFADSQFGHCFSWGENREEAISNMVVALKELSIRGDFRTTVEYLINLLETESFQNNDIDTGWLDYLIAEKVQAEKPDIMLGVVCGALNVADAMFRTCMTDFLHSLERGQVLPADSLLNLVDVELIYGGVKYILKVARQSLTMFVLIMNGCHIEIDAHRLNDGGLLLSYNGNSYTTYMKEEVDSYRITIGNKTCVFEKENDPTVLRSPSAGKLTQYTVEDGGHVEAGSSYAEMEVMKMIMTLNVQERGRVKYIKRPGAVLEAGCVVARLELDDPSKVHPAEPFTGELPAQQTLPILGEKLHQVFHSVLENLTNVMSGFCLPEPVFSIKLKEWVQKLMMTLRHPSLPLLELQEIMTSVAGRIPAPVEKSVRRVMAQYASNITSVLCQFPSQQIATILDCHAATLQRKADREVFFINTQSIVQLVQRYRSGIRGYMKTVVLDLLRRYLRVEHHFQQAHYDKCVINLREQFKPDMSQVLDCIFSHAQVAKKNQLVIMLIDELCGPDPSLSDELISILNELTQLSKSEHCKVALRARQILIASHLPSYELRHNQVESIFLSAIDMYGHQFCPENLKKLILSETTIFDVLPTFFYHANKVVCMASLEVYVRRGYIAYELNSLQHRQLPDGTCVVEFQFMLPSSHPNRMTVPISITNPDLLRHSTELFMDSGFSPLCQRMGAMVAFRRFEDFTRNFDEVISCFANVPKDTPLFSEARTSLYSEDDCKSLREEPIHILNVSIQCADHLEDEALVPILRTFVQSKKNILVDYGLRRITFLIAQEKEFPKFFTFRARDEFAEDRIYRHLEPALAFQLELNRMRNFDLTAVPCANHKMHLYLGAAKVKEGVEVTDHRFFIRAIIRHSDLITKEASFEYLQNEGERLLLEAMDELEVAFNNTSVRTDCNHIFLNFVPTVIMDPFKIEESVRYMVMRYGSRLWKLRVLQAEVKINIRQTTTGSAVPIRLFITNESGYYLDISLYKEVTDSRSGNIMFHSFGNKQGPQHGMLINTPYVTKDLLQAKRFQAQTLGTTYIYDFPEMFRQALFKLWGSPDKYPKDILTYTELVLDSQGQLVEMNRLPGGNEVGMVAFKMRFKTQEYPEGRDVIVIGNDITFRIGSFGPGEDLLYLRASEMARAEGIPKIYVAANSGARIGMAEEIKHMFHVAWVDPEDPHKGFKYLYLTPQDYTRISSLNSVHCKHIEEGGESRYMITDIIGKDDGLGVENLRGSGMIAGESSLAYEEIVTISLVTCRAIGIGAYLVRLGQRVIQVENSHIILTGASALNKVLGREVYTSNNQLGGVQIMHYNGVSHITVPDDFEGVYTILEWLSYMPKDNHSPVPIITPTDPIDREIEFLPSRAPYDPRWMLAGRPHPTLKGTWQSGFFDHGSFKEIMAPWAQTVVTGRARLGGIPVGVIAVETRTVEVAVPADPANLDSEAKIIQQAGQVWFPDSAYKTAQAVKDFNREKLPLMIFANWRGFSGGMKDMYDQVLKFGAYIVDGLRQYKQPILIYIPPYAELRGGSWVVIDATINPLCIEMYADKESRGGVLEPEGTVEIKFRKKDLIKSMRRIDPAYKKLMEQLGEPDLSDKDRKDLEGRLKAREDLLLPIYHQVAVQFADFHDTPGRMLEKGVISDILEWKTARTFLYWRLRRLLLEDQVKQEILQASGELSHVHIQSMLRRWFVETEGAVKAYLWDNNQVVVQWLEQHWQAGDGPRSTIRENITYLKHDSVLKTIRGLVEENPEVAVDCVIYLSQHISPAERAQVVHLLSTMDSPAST
# assay.method.text: Inhibition of recombinant human ACC2 expressed in CHO cells by fluorescence polarization assay
Listing of recorded pIC50 by entry.
# reply with the number alone; pIC50 is -log10 of concentration in mol/L

Consider the reported pIC50 for these compounds:
>>> measurement("Cc1cc(C(=O)N2CCC3(CCN(C(=O)OC(C)(C)C)C3)CC2)cc2cn[nH]c12")
6.00
>>> measurement("Cc1cc(C(=O)N2CCC3(CC2)CN(C(=O)O[C@H](C)c2ccccc2)C3)cc2cn[nH]c12")
6.06
>>> measurement("Cc1cc(C(=O)N2CCC3(CC2)CN(C(=O)OC(C)(C)C)C3)cc2cn[nH]c12")
6.10

# ---- query compound ----
The recorded pIC50 with Acetyl-CoA carboxylase 2 (Homo sapiens) for Cc1cc(C(=O)N2CCC3(CCN(C(=O)OCC(C)(C)C)C3)CC2)cc2cn[nH]c12 was 6.10
